// data source = ChEMBL document CHEMBL1201862

- Test system: KM12
- ASSAY INFO: NCI tumour cell line growth inhibition, 48 h
Activity calls are given as the source filed them. Rule as the data show it: active = GI50 up to about 1.1 µM and inactive = higher.
METRIC NAME: GI50

// below: answered compounds
[[record]]
compound = "CSc1nc(NC2OCC(OC(C)=O)C(OC(C)=O)C2OC(C)=O)c2c(n1)OCC2=O (stereo not given)"
subject_of_test = "KM12"
result = "> 100 µM (inactive)"

[[record]]
compound = "CC1C[C@H](C)CC(C(O)CC2CC(=O)N(Cc3ccccc3)C(=O)C2)C1O (stereo not given in full)"
subject_of_test = "KM12"
result = "48.9 µM (inactive)"

[[record]]
compound = "O=C(OC1CCC(=C2SCCCS2)[C@H]1C1SCCCS1)c1ccccc1 (stereo not given in full)"
subject_of_test = "KM12"
result = "> 100 µM (inactive)"

[[record]]
compound = "COc1ccc(N2C(=O)/C(=C/c3ccc(N(CCC#N)CCC#N)cc3)N=C2c2ccccc2)cc1"
subject_of_test = "KM12"
result = "> 100 µM (inactive)"


Let us examine a further case.
Prompt: # lookup: GI50 of "CC(C)(C)/N=C\N1CCC(C(c2ccccc2)c2ccccc2)CC1"
Completion: 65.8 µM (inactive)

###

Reported GI50 values are given for each entry in this list.
- Tested on: Hs-578T
- ASSAY INFO: NCI tumour cell line growth inhibition, 48 h
Calls of active or inactive are those of the source. No stated cut-off is given here; in the data, active = GI50 up to about 1.1 µM and inactive = higher.

Prompt: # lookup: GI50 of C[C@]12CCC3c4ccc(O)cc4CC[C@H]3C1CC(=O)N(N)C2=O (stereo partly drawn)
Completion: > 100 µM (inactive)

Prompt: Would you mind doing "CCOC(=O)c1c(N2CCOCC2)[nH]c(=O)c(C(c2ccc(OC)cc2)c2c(O)c(C(=O)OCC)c(N3CCOCC3)[nH]c2=O)c1O" as well?
Completion: > 100 µM (inactive)

Prompt: Would you mind doing "N#CC1N(C(=O)c2ccc(F)cc2)c2ccccc2N1C(=O)c1ccc(F)cc1" as well?
Completion: 68.1 µM (inactive)

Prompt: Would you mind doing "Cc1ccc(Nc2cc(=O)[nH]c(=S)[nH]2)cc1" as well?
Completion: > 100 µM (inactive)

###

- Test system: T47D
- ASSAY INFO: NCI tumour cell line growth inhibition, 48 h
Calls of active or inactive are those of the source. Rule as the data show it: active = GI50 up to about 1.1 µM and inactive = higher.
METRIC NAME: GI50

[[record]]
compound = "Oc1[nH]c(Nc2ccc(Cl)c(C(F)(F)F)c2)nc2ncnc1-2"
result = "24.5 µM (inactive)"

[[record]]
compound = "O=C1C(NCCc2cc(Cl)c(O)c(Cl)c2)=CC(=O)c2[nH]cnc21"
result = "21.7 µM (inactive)"

[[record]]
compound = "COC(=O)C(CCC1CC(OC)N(C(=O)OCc2ccccc2)C1)/N=C/c1ccccc1 (stereo unspecified)"
result = "40.5 µM (inactive)"

[[record]]
compound = "CC(=O)/C=C(/C=N/O)c1ccccc1"
result = "> 100 µM (inactive)"

[[record]]
compound = "CCOC(=O)[C@@H]1C[C@H]1c1ccc(O)c(O)c1"
result = "30.1 µM (inactive)"

[[record]]
compound = "CCOC(=O)C12CC(C)=C(C)CC1CCCc1ccccc12 (stereo unspecified)"
result = "15 µM (inactive)"

[[record]]
compound = "CC(C)(C)OC(=O)NC(Cc1ccccc1)OCc1ccccc1 (stereo unspecified)"
result = "14.6 µM (inactive)"

[[record]]
compound = "Cc1cccc(-c2cccc(COCc3cccc(-c4cccc(CO)n4)n3)n2)n1"
result = "31.2 µM (inactive)"

[[record]]
compound = "CN(C)CCN(/C(=N/c1ccccc1)N1CCCC1)c1ccccc1"
result = "> 100 µM (inactive)"

[[record]]
compound = "CCOC(=O)Cn1nc2ccc(Nc3c(C)[n+]([O-])c4cc(F)c(OCC)cc4[n+]3[O-])cc2n1"
result = "> 100 µM (inactive)"


Prompt: # lookup: GI50 of CC(NC(NC(C)C12CC3CC(CC(C3)C1)C2)=C(C(Cl)=C(Cl)Cl)[N+](=O)[O-])C12CC3CC(CC(C3)C1)C2 (stereo unspecified)
Completion: 20.4 µM (inactive)

Prompt: Would you mind doing CC(=O)C1=C(C)N(c2ccccc2)C2(O)C=CC(O)=C3C(=O)c4ccccc4C(=O)C312 (stereo unspecified) as well?
Completion: 8.75 µM (inactive)

Prompt: Would you mind doing O=CN(CCN1CCCC1)C1CCc2cc(Cl)c(Cl)cc2C1 (stereo unspecified) as well?
Completion: 11.1 µM (inactive)

Prompt: Would you mind doing "Nc1nccc(NCC2(CO)CCC2)n1" as well?
Completion: > 100 µM (inactive)

###

Reported GI50 values are given for each entry in this list.
- Tested on: KM12
- ASSAY INFO: NCI tumour cell line growth inhibition, 48 h
The source made the active and inactive calls. No stated cut-off is given here; in the data, active = GI50 up to about 1.1 µM and inactive = higher.

[[record]]
compound = "Cc1cnc2c(C)ccc([N+](=O)[O-])c2c1NCCCN(C)C"
metric_name = "GI50"
result = "> 100 µM (inactive)"


Let us examine a further case.
Prompt: # lookup: GI50 of O=C1C=C[C@@]23CC1C(O)C[C@H]2C=Cc1ccccc13 (stereo not given in full)
Completion: > 100 µM (inactive)

###

- System: HT-29
- ASSAY INFO: NCI tumour cell line growth inhibition, 48 h
Activity calls are given as the source filed them. Cut-off read from the data, not from the text of the source: active = GI50 up to about 1.1 µM and inactive = higher.
METRIC NAME: GI50

// below: answered molecules
[[record]]
molecule = "N#CC(Cc1ccccc1)N(CCC1=CCCCC1)Cc1ccccc1 (stereo unspecified)"
subject_of_test = "HT-29"
result = "32.2 µM (inactive)"

[[record]]
molecule = "O=c1[nH]c2ccc(C(F)(F)F)cc2nc1-c1ccccc1"
subject_of_test = "HT-29"
result = "> 100 µM (inactive)"

[[record]]
molecule = "CN(C)c1nncc2[nH]nnc12"
subject_of_test = "HT-29"
result = "> 100 µM (inactive)"

[[record]]
molecule = "CCOC(=O)c1c(N2CCOCC2)[nH]c(=O)c(C(c2ccc(OC)cc2)c2c(O)c(C(=O)OCC)c(N3CCOCC3)[nH]c2=O)c1O"
subject_of_test = "HT-29"
result = "> 100 µM (inactive)"


Prompt: # lookup: GI50 of O=C(c1ccccc1)c1ccc2c(c1)nc1n2C(c2c(F)cccc2F)SC1 (stereo unspecified)
Completion: 13 µM (inactive)

Prompt: Would you mind doing "O=C1/C(=C/c2ccccc2)CCCc2ccccc21" as well?
Completion: 17.7 µM (inactive)

###

- Tested on: MDA-MB-435
- ASSAY INFO: NCI tumour cell line growth inhibition, 48 h
Active and inactive are the calls of the source. Cut-off read from the data, not from the text of the source: active = GI50 up to about 1.1 µM and inactive = higher.
Reported GI50 values are given for each entry in this list.

// below: answered molecules
[[record]]
molecule = "N#CCCN(CCC#N)c1ccc(/C=C2\\N=C(c3ccccc3)N(c3ccccn3)C2=O)cc1"
metric_name = "GI50"
result = "> 100 µM (inactive)"

[[record]]
molecule = "COc1ccc(CN(CCc2c[nH]c3ccccc23)Cc2ccc(OC)cc2)cc1"
metric_name = "GI50"
result = "2.76 µM (inactive)"

[[record]]
molecule = "O=[N+]([O-])c1ccccc1S(=O)(=O)c1cc(Cl)cc2c1NCCC2"
metric_name = "GI50"
result = "35.5 µM (inactive)"

[[record]]
molecule = "N#Cc1c(C#N)c(SSc2c(C#N)c(C#N)c(N)n2-c2ccccc2)n(-c2ccccc2)c1N"
metric_name = "GI50"
result = "14.9 µM (inactive)"

[[record]]
molecule = "COc1ccccc1N1C(=O)/C(=C\\c2ccccc2)SC1c1cc(OC)c(OC)c(OC)c1 (centres undefined)"
metric_name = "GI50"
result = "17.9 µM (inactive)"

[[record]]
molecule = "CC(C)(C)OC(=O)NC(Cc1ccccc1)OCc1ccccc1 (centres undefined)"
metric_name = "GI50"
result = "19.4 µM (inactive)"


Prompt: # lookup: GI50 of CC[C@H](CC[C@@H](C)[C@H]1CC[C@H]2[C@@H]3CC=C4C[C@@H](O)CC[C@]4(C)[C@H]3CC[C@]12C)C(C)C [BETA-SITOSTEROL]
Completion: > 100 µM (inactive)

Prompt: Would you mind doing "CC1=CC(=O)/C(=C/NC(=O)NN)C(=O)O1" as well?
Completion: > 100 µM (inactive)

###

- Test system: PC-3
- ASSAY INFO: NCI tumour cell line growth inhibition, 48 h
Calls of active or inactive are those of the source. Rule as the data show it: active = GI50 up to about 1.1 µM and inactive = higher.
METRIC NAME: GI50

// below: answered compounds
[[record]]
compound = "COc1ccc(N2C(=O)C3ON(C(C(N)=O)c4ccccc4)C(c4ccc(-c5ccccc5)cc4)C3C2=O)cc1 (stereo not given)"
metric_name = "GI50"
result = "> 50 µM (inactive)"

[[record]]
compound = "CC1(C)C=C(/C=N/Nc2ccc(Br)cc2)C(C#N)=C(O)C1(C#N)C#N"
metric_name = "GI50"
result = "21.2 µM (inactive)"

[[record]]
compound = "C/C(=N\\NC(N)=S)C(CN1CCCCC1)C(C1=C(O)c2ccccc2OC1)c1ccccc1 (stereo not given)"
metric_name = "GI50"
result = "> 100 µM (inactive)"

[[record]]
compound = "O=C(COc1ccccc1)N(C(=O)N1CCN(c2ccccc2)CC1)S(=O)(=O)c1ccccc1"
metric_name = "GI50"
result = "50.5 µM (inactive)"


Let us examine a further case.
Prompt: # lookup: GI50 of "COc1ccc(N2C(=O)/C(=C/c3ccc(N(CCC#N)CCC#N)cc3)N=C2c2ccccc2)cc1"
Completion: > 100 µM (inactive)
